- Target Under Test: H. sapiens α, β-tubulin
- Experiment Notes: Fluorometric binding affinity of FITC-labeled synthetic peptides (specificity)
- Assay Conditions: FITC-labeled peptide, immobilised tubulin in 96-well plate, 2 h, ex 495 / em 520 nm
Peptide text beside a SMILES is read from it. * marks the point of attachment. FITC = O=C1OC2(c3ccc(O)cc3Oc3cc(O)ccc32)c2ccc(NC(=S)*)cc21
Observation Type: pKd
Note: pKd values are expressed as the negative base-10 logarithm of concentration in M.

Value (pKd, H. sapiens α, β-tubulin) for record CC[C@H](C)[C@H](NC(C)=O)C(=O)N[C@H](C(=O)N[C@@H](CCSC)C(=O)N[C@@H](CO)C(=O)N[C@H](C(=O)N1CCC[C@H]1C(=O)N[C@@H](C)C(=O)N[C@@H](Cc1c[nH]cn1)C(=O)N[C@@H](CC(N)=O)C(=O)N[C@@H](C)C(=O)N[C@@H](CCCCN)C(=O)N[C@@H](CCC(=O)O)C(=O)N[C@@H](CCCCNC(=S)Nc1ccc2c(c1)C(=O)OC21c2ccc(O)cc2Oc2cc(O)ccc21)C(N)=O)C(C)C)[C@@H](C)O [α_P1] (Ac-ITMSVPAHNAKEK(FITC)-NH2) = 6.87

====

- Target Under Test: P. capsici α, β-tubulin
- Experiment Notes: ELISA binding affinity of phages displaying tubulin-binding peptides (anti-M13 antibody)
- Parameters: species or system Phytophthora capsici
- Assay Conditions: phage displaying the peptide, 5 μg tubulin per well, OD 450 nm
Peptide text beside a SMILES is read from it. * marks the point of attachment. FITC = O=C1OC2(c3ccc(O)cc3Oc3cc(O)ccc32)c2ccc(NC(=S)*)cc21
Observation Type: Kd (pM)
Report as a plain number; the unit pM is understood.

Tested on P. capsici α, β-tubulin, the item CC(=O)N[C@H](C(=O)N[C@@H](CC(N)=O)C(=O)N[C@H](C(=O)N[C@@H](CO)C(=O)N[C@@H](Cc1c[nH]c2ccccc12)C(=O)N[C@@H](CC(=O)O)C(=O)N1CCC[C@H]1C(=O)N[C@@H](CCC(N)=O)C(=O)N[C@@H](Cc1ccc(O)cc1)C(=O)N[C@@H](CC(N)=O)C(=O)N1CCC[C@H]1C(=O)N[C@@H](CC(=O)O)C(=O)N[C@@H](CCCCNC(=S)Nc1ccc2c(c1)C(=O)OC21c2ccc(O)cc2Oc2cc(O)ccc21)C(N)=O)[C@@H](C)O)[C@@H](C)O [α_P2] (Ac-TNTSWDPQYNPDK(FITC)-NH2) showed Kd equal to 80.1

====

pKd reference
- Target Under Test: H. sapiens α, β-tubulin
- Experiment Notes: Fluorometric binding affinity of FITC-labeled synthetic peptides (specificity)
- Assay Conditions: FITC-labeled peptide, immobilised tubulin in 96-well plate, 2 h, ex 495 / em 520 nm
- From the text: Investigation of the binding affinity for α, β-tubulins of H. sapiens to the synthesized peptides is necessary because peptide binding to H. sapiens tubulins could trigger severe toxicity in humans. […] No significant binding fluorescence intensities for BSA were detected. Peptides were synthesized by AnyGen Inc. (Gwangju, Korea). […] This labeling was used for the identification of the target binding property by means of fluorescence detection. […]
Peptide text beside a SMILES is read from it. * marks the point of attachment. FITC = O=C1OC2(c3ccc(O)cc3Oc3cc(O)ccc32)c2ccc(NC(=S)*)cc21
For clarity, pKd is expressed as the negative log10 of concentration in mol/L.

Value of measured pKd for the entry CC(=O)N[C@H](C(=O)N[C@@H](CC(N)=O)C(=O)N1CCC[C@H]1C(=O)N[C@@H](CCC(N)=O)C(=O)N[C@@H](C)C(=O)N[C@@H](CCCNC(=N)N)C(=O)N[C@@H](Cc1c[nH]c2ccccc12)C(=O)N[C@@H](Cc1c[nH]cn1)C(=O)N[C@@H](CCC(=O)O)C(=O)N[C@@H](Cc1ccc(O)cc1)C(=O)N[C@@H](CC(N)=O)C(=O)N[C@@H](Cc1ccccc1)C(=O)N[C@@H](CCCCNC(=S)Nc1ccc2c(c1)C(=O)OC21c2ccc(O)cc2Oc2cc(O)ccc21)C(N)=O)[C@@H](C)O [β_P1] (Ac-TNPQARWHEYNFK(FITC)-NH2) : 6.34

Noted for CC(=O)N[C@@H](CC(N)=O)C(=O)N[C@@H](Cc1c[nH]cn1)C(=O)N[C@@H](Cc1ccccc1)C(=O)N[C@H](C(=O)N1CCC[C@H]1C(=O)N[C@H](C(=O)N[C@@H](CO)C(=O)N[C@@H](CC(N)=O)C(=O)N[C@@H](CCCNC(=N)N)C(=O)N[C@@H](Cc1ccccc1)C(=O)N[C@@H](CC(N)=O)C(=O)N[C@@H](C)C(=O)N[C@@H](CCCCNC(=S)Nc1ccc2c(c1)C(=O)OC21c2ccc(O)cc2Oc2cc(O)ccc21)C(N)=O)[C@@H](C)O)C(C)C [α_P3] (Ac-NHFVPTSNRFNAK(FITC)-NH2) : its pKd reads 6.79

// pKd value for CC(=O)N[C@H](C(=O)N[C@@H](CC(N)=O)C(=O)N[C@H](C(=O)N[C@@H](CO)C(=O)N[C@@H](Cc1c[nH]c2ccccc12)C(=O)N[C@@H](CC(=O)O)C(=O)N1CCC[C@H]1C(=O)N[C@@H](CCC(N)=O)C(=O)N[C@@H](Cc1ccc(O)cc1)C(=O)N[C@@H](CC(N)=O)C(=O)N1CCC[C@H]1C(=O)N[C@@H](CC(=O)O)C(=O)N[C@@H](CCCCNC(=S)Nc1ccc2c(c1)C(=O)OC21c2ccc(O)cc2Oc2cc(O)ccc21)C(N)=O)[C@@H](C)O)[C@@H](C)O [α_P2] (Ac-TNTSWDPQYNPDK(FITC)-NH2) : 6.59
